experimental.target: Nuclear factor erythroid 2-related factor 2 (Homo sapiens)
experiment: Activation of Nrf2 in human HepG2-ARE-C8 cells assessed as induction of ARE-mediated luciferase activity at 0.01 uM after 24 hrs by luciferase reporter gene assay relative to control
Type: cell-based
Threshold-based label: Activity under 1 gives Satisfied, Activity not under 1 gives Not satisfied.

Q. Quick check: does Fc1cc(F)c(-c2nc(-c3ccc4nc[nH]c4c3)no2)cc1F have Activity under 1?
A. Not satisfied

Q. Quick check: does Fc1ccc(-c2nc(-c3ccccn3)no2)cc1F have Activity under 1?
A. Satisfied

Q. Quick check: does Fc1ccccc1-c1nc(-c2ccc3nc[nH]c3c2)no1 have Activity under 1?
A. Not satisfied

Q. Quick check: does Clc1ccc(-c2nc(-c3ccc4nc[nH]c4c3)no2)cc1 have Activity under 1?
A. Satisfied
